Values were extracted from patent US20240084003A1.

Kindly supply the reported OD450 values for the records listed here.
# Tgt: T1, human CD22-ECD-His protein (human, UniProt P20273 20-687)
# T1 construct: Made in house in HEK293E; also called hCD22-ECD-His; recombinant human CD22-ECD His protein; not shown: His tag
# T1 sequence: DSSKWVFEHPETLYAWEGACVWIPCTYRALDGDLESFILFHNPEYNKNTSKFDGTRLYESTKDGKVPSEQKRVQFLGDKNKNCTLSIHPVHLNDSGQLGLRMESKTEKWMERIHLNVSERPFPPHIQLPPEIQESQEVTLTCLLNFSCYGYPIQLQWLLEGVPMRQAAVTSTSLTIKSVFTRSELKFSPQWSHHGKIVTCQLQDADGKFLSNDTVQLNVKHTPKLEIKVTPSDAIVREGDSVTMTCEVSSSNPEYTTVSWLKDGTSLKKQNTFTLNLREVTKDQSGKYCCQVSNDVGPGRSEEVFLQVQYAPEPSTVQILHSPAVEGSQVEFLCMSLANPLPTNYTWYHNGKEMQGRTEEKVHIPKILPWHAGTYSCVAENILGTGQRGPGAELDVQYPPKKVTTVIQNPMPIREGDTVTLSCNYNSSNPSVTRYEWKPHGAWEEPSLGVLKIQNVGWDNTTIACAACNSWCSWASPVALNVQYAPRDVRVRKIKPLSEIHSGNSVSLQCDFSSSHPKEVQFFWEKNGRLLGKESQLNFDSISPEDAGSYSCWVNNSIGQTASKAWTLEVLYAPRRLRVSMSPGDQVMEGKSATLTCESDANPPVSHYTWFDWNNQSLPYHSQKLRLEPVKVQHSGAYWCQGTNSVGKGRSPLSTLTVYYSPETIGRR
# Protocol: ELISA, Ab 0.0001 nM
API: value field is a number in OD450; no unit string.

stdin: Give the measured OD450 of F2.343.16 (antibody, human IgG1, lambda, V domains shown, Human-murine chimeric IgG1, lambda) VH: QVQLKQSGPGLVQPSQSLSITCTVSGFSLTGYGVQWVRQSPGKGLEWLGVIWGGGGTDYNAAFISRLNIIKDNSKSQVFFKMNSLQADDTAIYYCARYSKYGHFDVWGTGTAVTVSS VL: QAVVTQESALTTSPGETVTLTCRSSTGAVTTSNYANWVQEKPDHLFTGLIGGTYNRVPGVPARFSGSLIGDKAALTITGAQTEDEAIYFCALWYSNHFWVFGGGTKLTVLG .
stdout: 0.25

stdin: Give the measured OD450 of F2.99.1 (antibody, human IgG1, lambda, V domains shown, Human-murine chimeric IgG1, lambda) VH: QVTLKESGPGILQPSQTLSLTCSFSGFSLSTFPMGVGWIRQPSGKGLEWLAHIWWDDDEYYNPVLKSRLTISKDTSKKQVYLRIANVDTVDTATYYCTRANWDRWYFDVWGTGTTVTVSS VL: QLVLTQSSSASFSLGASAKLTCTLSRQHSAYTIEWYQQQPLKPPKYVMEVKKDGSHSTGDGIPDRFSGSSSGADRYLSISNIQPEDEAIYICGVGDTIKEHFVFGGGTKVTVLG .
stdout: 0.27

stdin: Give the measured OD450 of F1.216.2 (antibody, human IgG1, kappa, V domains shown, Human-murine chimeric IgG1, kappa) VH: QVQLQQSGPEVVRPGASVKISCKASGYAFSSSWMNWMKQRPGKALEWIGRIYPGDGDTNYSGEFKVKATLTADKSSSTAYMQLSSLTSEDSAVYFCAREGSYYSNPWYFDYWGQGTTLTVSS VL: DVLVTQTPLSLPVSLGDQASISCRSSQSIVQSNGDTYLEWYLQKPGQSPKLLIYKVSNRFSGVPDRFSGSGSGTDFTLKISRVEAEDLGVYYCFQGSHVPFTFGSGTKLEIKR .
stdout: 0.45
